MEASUREMENT NOTES: Immunostimulatory activity in Balb/c mouse splenocytes assessed as increase in conA-induced T cell proliferation at 50 uM after 72 hrs by MTT assay relative to control
Type: functional, Splenocyte

COMPOUND SMILES: O=C1CS[C@@H]([C@H]2O[C@H](CO)[C@@H](O)[C@@H]2O)N1c1cccc(Cl)c1
Activity [%]: 121.5

COMPOUND SMILES: O=C1CS[C@@H]([C@H]2O[C@H](CO)[C@@H](O)[C@@H]2O)N1c1ccc(Cl)cc1
Activity [%]: 112.3

COMPOUND SMILES: CCOC(=O)c1ccc(N2C(=O)CS[C@@H]2[C@H]2O[C@H](CO)[C@@H](O)[C@@H]2O)cc1
Activity [%]: 206.3

COMPOUND SMILES: COc1cccc(N2C(=O)CS[C@@H]2[C@H]2O[C@H](CO)[C@@H](O)[C@@H]2O)c1
Activity [%]: 158.7

COMPOUND SMILES: COc1ccc(N2C(=O)CS[C@@H]2[C@H]2O[C@H](CO)[C@@H](O)[C@@H]2O)cc1
Activity [%]: 93.6

COMPOUND SMILES: O=C1CS[C@H]([C@H]2O[C@H](CO)[C@@H](O)[C@@H]2O)N1c1cccc(Cl)c1
Activity [%]: 161.1

COMPOUND SMILES: CCOC(=O)c1ccc(N2C(=O)CS[C@H]2[C@H]2O[C@H](CO)[C@@H](O)[C@@H]2O)cc1
Activity [%]: 136.5

COMPOUND SMILES: Cc1cccc(N2C(=O)CS[C@@H]2[C@H]2O[C@H](CO)[C@@H](O)[C@@H]2O)c1
Activity [%]: 134.9

COMPOUND SMILES: Cc1ccc(N2C(=O)CS[C@H]2[C@H]2O[C@H](CO)[C@@H](O)[C@@H]2O)cc1
Activity [%]: 96.3

COMPOUND SMILES: O=C1CS[C@H]([C@H]2O[C@H](CO)[C@@H](O)[C@@H]2O)N1c1ccc(Cl)cc1
Activity [%]: 30.9

COMPOUND SMILES: COc1ccc(N2C(=O)CS[C@H]2[C@H]2O[C@H](CO)[C@@H](O)[C@@H]2O)cc1
Activity [%]: 103.2

COMPOUND SMILES: Cc1ccc(N2C(=O)CS[C@@H]2[C@H]2O[C@H](CO)[C@@H](O)[C@@H]2O)cc1
Activity [%]: 104

COMPOUND SMILES: Cc1cccc(N2C(=O)CS[C@H]2[C@H]2O[C@H](CO)[C@@H](O)[C@@H]2O)c1
Activity [%]: 158.7

COMPOUND SMILES: COc1cccc(N2C(=O)CS[C@H]2[C@H]2O[C@H](CO)[C@@H](O)[C@@H]2O)c1
Activity [%]: 147.6

Entry source: ChEMBL document CHEMBL3046212
